Test system: HEK 293T cells
readout type: percentage of DNA in comet tail with respect to the negative control

compound	reported measurement
Cc1cc(O)cc2oc(=O)c3c(O)cc(O)cc3c12 [AOH, alternariol]	significantly increased
CC1=C[C@H]2O[C@@H]3[C@H](O)C[C@](C)([C@@]2(CO)[C@H](O)C1=O)[C@]31CO1 [DON, deoxynivalenol]	significantly increased

---

Test system: Caco-2 cells
readout type: metabolites found by non-target U-HPLC-MS analysis

# metabolites found by non-target U-HPLC-MS analysis (compound: CC(=O)OC[C@]12C[C@H](OC(=O)CC(C)C)C(C)=C[C@H]1O[C@@H]1[C@H](O)[C@@H](OC(C)=O)[C@@]2(C)[C@]12CO2 [T-2, T-2 toxin] ) is 3´-hydroxy, 3-hydroxy-15-deacetyl

---

Below is a list of entries, each paired with its recorded IC50 value.
Tested on: HepG2, Caco-2, RAW 264.7, and HEK 293T cells

mol smiles	reported measurement
CC(C)C[C@@H]1NC(=O)[C@H](C)N(C)C(=O)CNC(=O)/C(=C/c2ccccc2)N(C)C1=O	> 0.05 µM

Please turn your attention to the following entry.
Form field, IC50 with HepG2, Caco-2, RAW 264.7, and HEK 293T cells, item `COc1cc(O)c2c(=O)oc3cc(O)cc(C)c3c2c1` : > 0.05 µM

---

Test system: Caco-2 cells
Details: human (Caco-2), mouse (RAW 264.7)
Marks after values point to notes of the source that are not given here.
readout type: transepithelial transport, Caco-2 Cells

A selection of reference data follows.
molecule	reported measurement
CC(=O)OC[C@]12C[C@H](OC(=O)CC(C)C)C(C)=C[C@H]1O[C@@H]1[C@H](O)[C@@H](O)[C@@]2(C)[C@]12CO2 [HT-2, HT-2 toxin]	0.01 ± 0.00^a %
Cc1cc(O)cc2oc(=O)c3c(O)cc(O)cc3c12 [AOH, alternariol]	0.04 ± 0.02^a %
COc1cc(C2Oc3cc([C@H]4Oc5cc(O)cc(O)c5C(=O)[C@@H]4O)ccc3OC2CO)ccc1O (some centres unmarked) [Silibinin, silibinin, reference compound]	0.00 ± 0.00^a %
COc1c(C)c2c(c(O)c1C/C=C(\C)CCC(=O)O)C(=O)OC2 [MPA, mycophenolic acid, reference compound]	0.00 ± 0.00^a %
CC(C)[C@H]1C(=O)O[C@H](C(C)C)C(=O)N(C)[C@@H](C(C)C)C(=O)O[C@H](C(C)C)C(=O)N(C)[C@@H](C(C)C)C(=O)O[C@H](C(C)C)C(=O)N1C [ENN-B, enniatin B]	1.15 ± 0.25^b %
CC1=C[C@H]2O[C@@H]3[C@H](O)C[C@](C)([C@@]2(CO)[C@H](O)C1=O)[C@]31CO1 [DON, deoxynivalenol]	0.00 ± 0.00^a %
CC[C@H](C)[C@H]1C(=O)O[C@H](C(C)C)C(=O)N(C)[C@@H](C(C)C)C(=O)O[C@H](C(C)C)C(=O)N(C)[C@@H](C(C)C)C(=O)O[C@H](C(C)C)C(=O)N1C [ENN-B1, enniatin B1]	0.51 ± 0.03^ab %

Here is another molecule to look at.
Per the records, this molecule ( C[C@H]1CCCC(=O)CCC/C=C/c2cc(O)cc(O)c2C(=O)O1 [ZEA, zearalenone] ) has transepithelial transport, Caco-2 Cells equal to 0.19 ± 0.01^ab %
